B1: library; numbered along this chain (parent)
chain: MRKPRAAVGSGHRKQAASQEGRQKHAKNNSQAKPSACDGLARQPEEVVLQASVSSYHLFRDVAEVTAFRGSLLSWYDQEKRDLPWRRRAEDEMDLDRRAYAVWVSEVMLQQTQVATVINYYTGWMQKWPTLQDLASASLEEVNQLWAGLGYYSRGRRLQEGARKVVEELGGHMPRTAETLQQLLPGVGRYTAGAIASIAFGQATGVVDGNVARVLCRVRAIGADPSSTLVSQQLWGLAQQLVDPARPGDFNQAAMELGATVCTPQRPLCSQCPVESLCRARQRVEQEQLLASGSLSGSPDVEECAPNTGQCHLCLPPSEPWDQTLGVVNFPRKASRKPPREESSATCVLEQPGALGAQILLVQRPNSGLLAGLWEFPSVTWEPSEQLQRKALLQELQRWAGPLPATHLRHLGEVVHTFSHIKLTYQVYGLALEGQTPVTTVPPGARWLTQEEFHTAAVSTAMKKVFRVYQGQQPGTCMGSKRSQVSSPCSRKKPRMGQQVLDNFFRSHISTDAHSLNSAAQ

- Variants of: B1
- Assay Procedure: 8OG:A repair function score (normalized; synonymous = 0, nonsense = -1) (normalized log-likelihood score); higher = more repair activity (WT-like);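 note: cells sorted at 72 h after reporter transfection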
- Test Settings: with 8OG:A DNA repair reporter (GFP) in HEK-293 MUTYH KO cells
This section presents variants with their documented 8OG:A repair function score values.
No unit in the answer, please; the number alone is enough.

**Query** Find the recorded 8OG:A repair function score belonging to "S367H" and report it.
**Result** -0.207

**Query** Follow-up entry: "T122Y"
**Result** -0.13

**Query** Likewise for "Q323K" ?
**Result** -0.0269

**Query** Try the variant "K464G"
**Result** -0.315

**Query** Now try "V414Q" .
**Result** -0.321

**Query** Then "S54P" ?
**Result** 0.00682

**Query** What do you have for "G412T" ?
**Result** -0.494

**Query** Lookup "W103K"
**Result** -1.37

**Query** Do the same for "V348A" please
**Result** -0.589

**Query** Also "V142D" , if possible.
**Result** -1.15

**Query** Next entry: "V379N"
**Result** -0.658

**Query** Please give the result for "S419D" too.
**Result** -0.221

**Query** Can you handle "A405P" next?
**Result** 0.125

**Query** What about this variant? "L393F"
**Result** -0.244
